Listed binders paired with reported IC50 Ratio (vs PYY(3-36))
Target: T1, human Y2 receptor (human, UniProt P49146 1-381)
T1 construct: whole, on cells; used as membrane fraction of hY2R/CHO cells; also called human NPY2R; hY2R
T1 sequence (looked up): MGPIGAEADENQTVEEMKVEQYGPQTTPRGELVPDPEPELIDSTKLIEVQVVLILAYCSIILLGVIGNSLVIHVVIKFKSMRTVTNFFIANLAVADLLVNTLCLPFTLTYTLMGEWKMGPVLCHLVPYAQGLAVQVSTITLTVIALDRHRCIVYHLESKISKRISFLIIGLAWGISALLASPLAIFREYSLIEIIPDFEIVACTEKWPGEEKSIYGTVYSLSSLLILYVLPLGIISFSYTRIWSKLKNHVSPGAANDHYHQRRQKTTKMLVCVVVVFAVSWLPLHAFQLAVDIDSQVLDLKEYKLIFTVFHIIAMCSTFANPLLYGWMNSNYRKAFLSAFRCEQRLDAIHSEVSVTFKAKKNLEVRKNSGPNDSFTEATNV
Test: RBA: [125I]-PYY displacement, hY2R/CHO membranes
Non-standard residues stand in square brackets, D forms with d. No end group written: not given here. *: point of attachment. 2Nal = N[C@@H](Cc1ccc2ccccc2c1)C(=O)O; Morpholinocarbonyl = O=C(N1CCOCC1)*; Cha = N[C@@H](CC1CCCCC1)C(=O)O; 4Amb = NCc1ccc(C(=O)O)cc1; Aib = CC(C)(N)C(=O)O; Bz = O=C(c1ccccc1)*
Please give a number only; it is taken to be in ratio.

Examples with answers:
binder	unitAnnotation	IC50 Ratio (vs PYY(3-36))
Morpholinocarbonyl-D[dP]RH[Cha][Cha]NL[Aib]TRQR[Cha]-NH2 (SMILES CC(C)C[C@H](NC(=O)[C@H](CC(N)=O)NC(=O)[C@H](CC1CCCCC1)NC(=O)[C@H](CC1CCCCC1)NC(=O)[C@H](Cc1c[nH]cn1)NC(=O)[C@H](CCCNC(=N)N)NC(=O)[C@H]1CCCN1C(=O)[C@H](CC(=O)O)NC(=O)N1CCOCC1)C(=O)NC(C)(C)C(=O)N[C@H](C(=O)N[C@@H](CCCNC(=N)N)C(=O)N[C@@H](CCC(N)=O)C(=O)N[C@@H](CCCNC(=N)N)C(=O)N[C@@H](CC1CCCCC1)C(N)=O)[C@@H](C)O, also called compound No. 173) [Morpholinocarbonyl-[Asp23, D-Pro24, Cha27,28,36, Aib31]-PYY(23-36)]	ratio	2.9
[4Amb]RAYINLITRQR[2Nal]-NH2 (N-terminus assumed; SMILES CC[C@H](C)[C@H](NC(=O)[C@H](Cc1ccc(O)cc1)NC(=O)[C@H](C)NC(=O)[C@H](CCCNC(=N)N)NC(=O)c1ccc(CN)cc1)C(=O)N[C@@H](CC(N)=O)C(=O)N[C@@H](CC(C)C)C(=O)N[C@H](C(=O)N[C@H](C(=O)N[C@@H](CCCNC(=N)N)C(=O)N[C@@H](CCC(N)=O)C(=O)N[C@@H](CCCNC(=N)N)C(=O)N[C@@H](Cc1ccc2ccccc2c1)C(N)=O)[C@@H](C)O)[C@@H](C)CC, also called compound No. 14) [4-Aminomethylbenzoyl-[Ala26, Ile28,31, Nal(2)36]-PYY(25-36)]	ratio	14
[4Amb]RAYIN[2Nal]ITRQRY-NH2 (N-terminus assumed; SMILES CC[C@H](C)[C@H](NC(=O)[C@H](Cc1ccc(O)cc1)NC(=O)[C@H](C)NC(=O)[C@H](CCCNC(=N)N)NC(=O)c1ccc(CN)cc1)C(=O)N[C@@H](CC(N)=O)C(=O)N[C@@H](Cc1ccc2ccccc2c1)C(=O)N[C@H](C(=O)N[C@H](C(=O)N[C@@H](CCCNC(=N)N)C(=O)N[C@@H](CCC(N)=O)C(=O)N[C@@H](CCCNC(=N)N)C(=O)N[C@@H](Cc1ccc(O)cc1)C(N)=O)[C@@H](C)O)[C@@H](C)CC, also called compound No. 56) [4-Aminomethylbenzoyl-[Ala26, Ile28,31, Nal(2)30]-PYY(25-36)]	ratio	4.1

Which IC50 Ratio (vs PYY(3-36)) value is on record for Bz-RH[Cha]INLRTRQR[Cha]-NH2 (SMILES CC[C@H](C)[C@H](NC(=O)[C@H](CC1CCCCC1)NC(=O)[C@H](Cc1c[nH]cn1)NC(=O)[C@H](CCCNC(=N)N)NC(=O)c1ccccc1)C(=O)N[C@@H](CC(N)=O)C(=O)N[C@@H](CC(C)C)C(=O)N[C@@H](CCCNC(=N)N)C(=O)N[C@H](C(=O)N[C@@H](CCCNC(=N)N)C(=O)N[C@@H](CCC(N)=O)C(=O)N[C@@H](CCCNC(=N)N)C(=O)N[C@@H](CC1CCCCC1)C(N)=O)[C@@H](C)O, also called compound No. 65) [Benzoyl-[Cha27,36, Ile28, Arg31]-PYY(25-36)] ?
15
